These entries and their values trace back to ChEMBL document CHEMBL3885881.

Species: Rattus norvegicus
Experiment: DrugMatrix - Regimen: Daily Repeat
Type: toxicity, organism-based, Sprague-Dawley
Parameters: regimen Daily Repeat, gender Male, age 6-8 weeks
Details: in vivo, po, 1500 mg/kg, 72 h, tissue Plasma, route oral GAVAGE, dose level High, time 3 day, vehicle .5 % CMC
Readout Name: BLOOD UREA NITROGEN (mg/dL)

# Input Smiles, Readout Name, Numeric Readout
rows = [
    ("CN(C)[C@@H]1C(O)=C(C(N)=O)C(=O)[C@@]2(O)C(O)=C3C(=O)c4c(O)ccc(Cl)c4[C@@](C)(O)[C@H]3C[C@@H]12", "BLOOD UREA NITROGEN", 17),
    ("CC(C)=CCC/C(C)=C/CO", "BLOOD UREA NITROGEN", 13),
    ("CC(C)Oc1ccc2c(=O)c(-c3ccccc3)coc2c1", "BLOOD UREA NITROGEN", 15.33),
    ("O=c1cnn([C@@H]2O[C@H](CO)[C@@H](O)[C@H]2O)c(=O)[nH]1", "BLOOD UREA NITROGEN", 15.33),
]

---

Measured LEUKOCYTE COUNT, listed per entry.
Species on record: Rattus norvegicus
Assay: DrugMatrix - Regimen: Daily Repeat
Type: toxicity, organism-based, Sprague-Dawley
Design: regimen Daily Repeat, gender Male, age 6-8 weeks
Conditions: in vivo, po, 0 mg/kg, 120 h, tissue Blood, route oral GAVAGE, dose level Control, time 5 day, vehicle .5 % CMC

# Compound, Readout Unit, LEUKOCYTE COUNT
measured = [
    ("COC1=C(OC)C(=O)C(CCCCCCCCCCO)=C(C)C1=O", "x10E3/uL", 15.03),
    ("C[C@H]1O[C@@H](n2cc(F)c(=O)[nH]c2=O)[C@H](O)[C@@H]1O", "x10E3/uL", 15.03),
    ("CN(C)[C@@H]1C(O)=C(C(N)=O)C(=O)[C@@]2(O)C(O)=C3C(=O)c4c(O)ccc(Cl)c4[C@@](C)(O)[C@H]3C[C@@H]12", "x10E3/uL", 15.95),
    ("Cn1c(=O)c2c(ncn2CC(O)CO)n(C)c1=O (stereo not drawn)", "x10E3/uL", 15.95),
    ("CC(C(=O)O)c1ccc2oc(-c3ccc(Cl)cc3)nc2c1 (stereo not drawn)", "x10E3/uL", 9.42),
    ("CN/C(=N/CCSCc1nc[nH]c1C)NC#N", "x10E3/uL", 15.03),
    ("O=C1C(CC[S+]([O-])c2ccccc2)C(=O)N(c2ccccc2)N1c1ccccc1 (stereo not drawn)", "x10E3/uL", 15.07),
    ("CCN(CC)CCOc1ccc(/C(=C(/Cl)c2ccccc2)c2ccccc2)cc1", "x10E3/uL", 17.67),
]

---

Organism: Rattus norvegicus
Test: DrugMatrix - Regimen: Daily Repeat
Type: toxicity, organism-based, Sprague-Dawley
Parameters: regimen Daily Repeat, gender Male, age 6-8 weeks
Details: in vivo, po, 0 mg/kg, 72 h, tissue Plasma, route oral GAVAGE, dose level Control, time 3 day, vehicle 100 % WATER
Measured POTASSIUM, listed per entry.
Readout Name: POTASSIUM (MEQ/L)

# Molecule, Readout Unit, Numeric Readout
measured = [
    ("CN(C)CCOC(c1ccccc1)c1ccccc1 [DIPHENHYDRAMINE]", "MEQ/L", 5.95),
    ("O.O.O.O.O.O.[Cl-].[Cl-].[Sr+2] [STRONTIUM CHLORIDE HEXAHYDRATE]", "MEQ/L", 5.99),
    ("CN(C)CC[C@@H](c1ccc(Cl)cc1)c1ccccn1 [DEXCHLORPHENIRAMINE]", "MEQ/L", 6.12),
    ("Cn1c(=O)c2[nH]cnc2n(C)c1=O.O [THEOPHYLLINE]", "MEQ/L", 6.78),
]
